Numbers sourced from patent US20170202826A1.

assay: Aqueous solubility of apixaban; type: physicochemical; details: aqueous medium, aqueous buffer; room temperature, pH 6.8
Property measured: solubility

What does the data say about its solubility? Entry: `COc1ccc(-n2nc(C(N)=O)c3c2C(=O)N(c2ccc(N4CCCCC4=O)cc2)CC3)cc1`
< 1 µg/mL
